system: ATP; assay: switch fluorescence ratio, 500 uM ATP over buffer (Cy3 cluster intensity, sum of 5 cycles each) (fold (ratio)); higher = stronger signal-on switching upon ATP binding; sequences stand for … in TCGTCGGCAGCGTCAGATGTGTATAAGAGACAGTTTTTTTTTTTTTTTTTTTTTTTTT…TC; details: aptamer strand: ATP DNA aptamer (quencher-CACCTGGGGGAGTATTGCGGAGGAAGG + anchor), 100 nM annealed; ATP concentration: 500 uM;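 further: ATP exposure 15 min at 22 °C before imaging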
Entries and their measured switch fluorescence ratio follow.
Lab note: jot down the number only; don't add units.

Below, each entry is followed by its recorded switch fluorescence ratio result.
sequenceString	experimentalValue
AGGTTGAAGC	0.993
ATTAACTGCT	0.993
AGAAAATTAG	1.02
GGTATATCTT	1.01
GAAGTTGTGT	0.987

Looking for the measured switch fluorescence ratio of `AAGGCTATGG` , can you help?
0.988

* * *

tested on: ATP; assay: switch fluorescence ratio, 500 uM ATP over buffer (Cy3 cluster intensity, sum of 5 cycles each) (fold (ratio)); higher = stronger signal-on switching upon ATP binding; sequences stand for … in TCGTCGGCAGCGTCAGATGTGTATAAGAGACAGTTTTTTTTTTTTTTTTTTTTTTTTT…TC; details: aptamer strand: ATP DNA aptamer (quencher-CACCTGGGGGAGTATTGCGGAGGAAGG + anchor), 100 nM annealed; ATP concentration: 500 uM;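 further: ATP exposure 15 min at 22 °C before imaging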
metric: switch fluorescence ratio
Lab note: jot down the number only; don't add units.

Below, each entry is followed by its recorded switch fluorescence ratio result.
sequenceString	testTarget	switch fluorescence ratio
ACGAAGGCTA	ATP	1.14
GGCGTGTGCG	ATP	0.98
AGGAAGTGGT	ATP	0.967
TTATTAAAAC	ATP	0.999
TGTGGGTTAT	ATP	0.976
AAAGGAGGGG	ATP	0.983
TAATTTCCTT	ATP	1.06
GCATTCAATG	ATP	1.01
ATCGGCTCTC	ATP	1.03
TTCGCGAGGT	ATP	2.67

Looking for the measured switch fluorescence ratio of `TCGGCATCGG` , can you help?
1

Looking for the measured switch fluorescence ratio of `TGGGGGAGTT` , can you help?
0.994

Looking for the measured switch fluorescence ratio of `CTTGTATAGT` , can you help?
0.995

Looking for the measured switch fluorescence ratio of `TGCAGGGTGC` , can you help?
1.04

* * *

Entries and their measured switch fluorescence ratio follow.
tested on: ATP; experiment: switch fluorescence ratio, 500 uM ATP over buffer (Cy3 cluster intensity, sum of 5 cycles each) (fold (ratio)); higher = stronger signal-on switching upon ATP binding; sequences stand for … in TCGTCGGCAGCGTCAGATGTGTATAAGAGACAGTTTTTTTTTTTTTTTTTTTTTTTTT…TC; settings: aptamer strand: ATP DNA aptamer (quencher-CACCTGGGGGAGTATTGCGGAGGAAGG + anchor), 100 nM annealed; ATP concentration: 500 uM;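 further: ATP exposure 15 min at 22 °C before imaging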
Lab note: jot down the number only; don't add units.

Below, each entry is followed by its recorded switch fluorescence ratio result.
sequenceString	experimentalValue
GTGGTCGCTG	0.982
ACTTTGGGTT	1.01

Looking for the measured switch fluorescence ratio of `AAGGCGGGCT` , can you help?
0.989

Looking for the measured switch fluorescence ratio of `GATGGGGGCA` , can you help?
1

Looking for the measured switch fluorescence ratio of `TTATTGGGCC` , can you help?
1.01

Looking for the measured switch fluorescence ratio of `GATATATTAT` , can you help?
1.02

* * *

Entries and their measured switch fluorescence ratio follow.
test system: ATP; assay: switch fluorescence ratio, 500 uM ATP over buffer (Cy3 cluster intensity, sum of 5 cycles each) (fold (ratio)); higher = stronger signal-on switching upon ATP binding; sequences stand for … in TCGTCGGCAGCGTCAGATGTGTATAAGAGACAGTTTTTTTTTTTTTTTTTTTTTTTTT…TC; conditions: aptamer strand: ATP DNA aptamer (quencher-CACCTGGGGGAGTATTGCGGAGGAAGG + anchor), 100 nM annealed; ATP concentration: 500 uM;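 further: ATP exposure 15 min at 22 °C before imaging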
Lab note: jot down the number only; don't add units.

Below, each entry is followed by its recorded switch fluorescence ratio result.
sequenceString	switch fluorescence ratio
GAGATTGAGG	1.02
GAGGCGGAGG	1
CGTATATGGG	0.995
CAAAAAAAGA	0.986
TTGATCGGTG	0.999

Looking for the measured switch fluorescence ratio of `GAGGCCCATT` , can you help?
1

* * *

tested on: ATP; assay: switch fluorescence ratio, 500 uM ATP over buffer (Cy3 cluster intensity, sum of 5 cycles each) (fold (ratio)); higher = stronger signal-on switching upon ATP binding; sequences stand for … in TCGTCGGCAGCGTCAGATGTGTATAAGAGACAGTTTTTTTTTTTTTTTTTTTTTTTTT…TC; conditions: aptamer strand: ATP DNA aptamer (quencher-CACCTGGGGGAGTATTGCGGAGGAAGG + anchor), 100 nM annealed; ATP concentration: 500 uM;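 further: ATP exposure 15 min at 22 °C before imaging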
metric: switch fluorescence ratio

sequenceString	experimentalValue
TGGGGAAGGG	0.989
GTGTGTCCGG	0.987
TTCGTGTTGG	0.973
ACCTTTTAGG	0.965
TCGGAGATTT	0.973
TTCGTATCAG	1.02
GGGGGAACGC	0.998
ACAGGAGCTT	1.05
CGGGCTGTTT	0.977
TGTTGTCAGG	0.99

Kindly review the next sequence as well.
Looking for the measured switch fluorescence ratio of `CACTTTGGAT` , can you help?
0.991

* * *

tested on: ATP; test: switch fluorescence ratio, 500 uM ATP over buffer (Cy3 cluster intensity, sum of 5 cycles each) (fold (ratio)); higher = stronger signal-on switching upon ATP binding; sequences stand for … in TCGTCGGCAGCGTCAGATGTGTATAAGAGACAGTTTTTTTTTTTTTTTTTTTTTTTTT…TC; conditions: aptamer strand: ATP DNA aptamer (quencher-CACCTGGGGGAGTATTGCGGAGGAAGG + anchor), 100 nM annealed; ATP concentration: 500 uM;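 further: ATP exposure 15 min at 22 °C before imaging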
metric: switch fluorescence ratio
Lab note: jot down the number only; don't add units.

sequenceString	testTarget	experimentalValue
GGGTCATAGT	ATP	1.01
GGAGTTAGGA	ATP	0.987
CTGGTGGATT	ATP	0.996
GCTGAACTTC	ATP	0.98

Record `ATATACTTCT` : what is its switch fluorescence ratio with ATP?
1.02

Record `TTTGTGAAAG` : what is its switch fluorescence ratio with ATP?
1.01

Record `GGGGGTGGCG` : what is its switch fluorescence ratio with ATP?
0.973

Record `TCAGGGCTGT` : what is its switch fluorescence ratio with ATP?
0.994

Record `TTGGGATTAG` : what is its switch fluorescence ratio with ATP?
1.01

Record `ATGATGGTTC` : what is its switch fluorescence ratio with ATP?
1.01

Record `AGGGAGTCTG` : what is its switch fluorescence ratio with ATP?
1.02

Record `TTGACTGGG` : what is its switch fluorescence ratio with ATP?
0.991

Record `ACTAATTGA` : what is its switch fluorescence ratio with ATP?
0.996

Record `CAGAGGATAT` : what is its switch fluorescence ratio with ATP?
1.02

* * *

Entries and their measured switch fluorescence ratio follow.
system: ATP; test: switch fluorescence ratio, 500 uM ATP over buffer (Cy3 cluster intensity, sum of 5 cycles each) (fold (ratio)); higher = stronger signal-on switching upon ATP binding; sequences stand for … in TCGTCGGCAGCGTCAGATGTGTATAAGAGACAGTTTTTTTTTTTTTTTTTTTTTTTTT…TC; conditions: aptamer strand: ATP DNA aptamer (quencher-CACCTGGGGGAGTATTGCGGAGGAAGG + anchor), 100 nM annealed; ATP concentration: 500 uM;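 further: ATP exposure 15 min at 22 °C before imaging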
Lab note: jot down the number only; don't add units.

Below, each entry is followed by its recorded switch fluorescence ratio result.
sequenceString	switch fluorescence ratio
CACCGGAAGG	1.02
TGGTTCGAT	0.978
CCCTAGTATG	0.992

Looking for the measured switch fluorescence ratio of `TGGGGGTTTT` , can you help?
1

Looking for the measured switch fluorescence ratio of `TTTGAATTTG` , can you help?
0.974

Looking for the measured switch fluorescence ratio of `TTGTTGCTTT` , can you help?
1.02

Looking for the measured switch fluorescence ratio of `GATTTATTGG` , can you help?
0.983

* * *

system: ATP; assay: switch fluorescence ratio, 500 uM ATP over buffer (Cy3 cluster intensity, sum of 5 cycles each) (fold (ratio)); higher = stronger signal-on switching upon ATP binding; sequences stand for … in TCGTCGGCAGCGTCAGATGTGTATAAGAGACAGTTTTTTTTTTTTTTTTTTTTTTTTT…TC; conditions: aptamer strand: ATP DNA aptamer (quencher-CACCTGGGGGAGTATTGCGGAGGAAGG + anchor), 100 nM annealed; ATP concentration: 500 uM;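 further: ATP exposure 15 min at 22 °C before imaging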
Entries and their measured switch fluorescence ratio follow.
Lab note: jot down the number only; don't add units.

Below, each entry is followed by its recorded switch fluorescence ratio result.
sequenceString	experimentalValue
ATTTTAATAA	0.99
TGTAAAAAGC	1.02
TAATGGAAAT	0.979
TGATTCAGAG	0.992

Looking for the measured switch fluorescence ratio of `GCGGCAAAAT` , can you help?
1.01

Looking for the measured switch fluorescence ratio of `CTGGTTAGGT` , can you help?
1.01

Looking for the measured switch fluorescence ratio of `TTGAAACCGG` , can you help?
0.998

Looking for the measured switch fluorescence ratio of `GATAAATAAA` , can you help?
1

Looking for the measured switch fluorescence ratio of `TGATTTTCGG` , can you help?
0.974

Data origin, for the record: the supplement of paper PMC10126150
